# Test system: T1, recombinant human DLL4 (human, UniProt Q9NR61 25-522)
# T1 construct: also called rhDLL4; hDLL4
# T1 sequence (Q9NR61 25-522): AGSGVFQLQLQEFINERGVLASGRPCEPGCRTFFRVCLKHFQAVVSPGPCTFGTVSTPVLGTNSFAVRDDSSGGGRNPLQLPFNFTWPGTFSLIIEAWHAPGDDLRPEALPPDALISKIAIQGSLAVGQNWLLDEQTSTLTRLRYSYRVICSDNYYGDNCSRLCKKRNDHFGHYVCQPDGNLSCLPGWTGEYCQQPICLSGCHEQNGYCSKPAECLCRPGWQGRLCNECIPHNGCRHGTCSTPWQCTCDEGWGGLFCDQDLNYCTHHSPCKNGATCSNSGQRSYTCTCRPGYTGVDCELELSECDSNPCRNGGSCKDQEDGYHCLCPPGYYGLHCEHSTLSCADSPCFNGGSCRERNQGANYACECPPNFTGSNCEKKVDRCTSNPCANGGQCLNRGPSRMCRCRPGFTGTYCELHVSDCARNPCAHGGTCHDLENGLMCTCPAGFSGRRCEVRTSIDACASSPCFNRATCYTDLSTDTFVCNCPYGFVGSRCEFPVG
# Measurement description: Biacore off-rate, periplasmic extract
What log10 koff was measured for each of the following?
Remember, log10 of koff, in s⁻¹.

Solved cases below.
- Binder: "DLLBII33C05 (VHH) VHH: EVQLVESGGGLVQAGGSLRLSCAASGFTLDNYVIGWFRQAPGKEREEVSCISSSGGSTDYLDSVKGRFTISRDNAKNTVYLQMNSLKPEDTAVYYCAADSLPCYYDKMVYDYWGQGTQVTVSS"
  log10 koff: -3.04
- Binder: "DLLBII104C04 (VHH) VHH: EVQLVESGGGLVQAGGSLRLSCAAAGSTFSSYVMGWYRQAPGKQRELVAHISTRGITYYADSVKGRFTISRDNAKNTMYLQMNSLKPEDTAVYYCNTRRNFLSNYWGQGTQVTVSS"
  log10 koff: -3.00
- Binder: "DLLBII115A05 (VHH, also called 115A5; DLLBII115A5) VHH: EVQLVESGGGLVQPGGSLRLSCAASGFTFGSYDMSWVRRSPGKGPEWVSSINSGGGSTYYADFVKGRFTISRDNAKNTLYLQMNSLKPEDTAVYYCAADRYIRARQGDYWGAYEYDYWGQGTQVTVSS"
  log10 koff: -2.51

I'm hoping you can list log10 koff for every binder here, please.
1. DLLBII95F02 (VHH) VHH: EVQLVESGGGSVQAGGSLRLSCAASGRTFSSYAMGWFRQAPGKEREFVAAINWSGGYTYYADSVRGRFTISRDNAKNTVYLQMNSLKPEDTAVYYCAAPAPGSSGYEYDYWGQGTQVTVSS
2. DLLBII56A09 (VHH, also called 56A9; DLLBII56A9) VHH: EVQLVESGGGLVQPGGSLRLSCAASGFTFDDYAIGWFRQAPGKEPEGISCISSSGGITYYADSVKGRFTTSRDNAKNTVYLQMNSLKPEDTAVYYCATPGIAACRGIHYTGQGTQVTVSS
3. DLLBII19F12 (VHH) VHH: EVQLVESGGGLVQAGGSLRLSCTASGSTFTSYAMGWYRQAPGKQRELVAAISSDDSTYYADCVKGRFTISRDNAKNTVYLQMNSLKPEDTAVYYCNAPHSDYDEEAPSDFGSWGQGTQVTVSS
4. DLLBII28B06 (VHH) VHH: EVQLVESGGGLVQAGGSLRLSCAASGSTFSTYAMGWYRQDPGNQRELVAAISSDGSTHYADSVKGRFTISRDNAKNTVYLQMNSLKPEDTAVYYCYAPVKVAGLEYDYWGQGTQVTVSS
5. DLLBII83G01 (VHH) VHH: EVQLVESGGGLVQAGGSLRLSCAASGRTFSNYIMGWFRQAPGKEREFVAGISRYADYTGYADSVKGRFTISRDNVKNTVYLRMNSLKPDDTAVYYCAANEGYCSGYGCYEDSGQYDYWGQGTQVTVSS

Key:
[-3.17, -2.96, -3.31, -2.12, -3.39]

I'm hoping you can list log10 koff for every binder here, please.
1. DLLBII104G01 (VHH, also called 104G1) VHH: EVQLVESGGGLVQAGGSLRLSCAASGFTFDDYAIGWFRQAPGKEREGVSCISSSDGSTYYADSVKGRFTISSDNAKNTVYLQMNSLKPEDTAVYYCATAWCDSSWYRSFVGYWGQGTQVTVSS
2. DLLBII101G08 (VHH, also called 101G8; DLLBII101G8) VHH: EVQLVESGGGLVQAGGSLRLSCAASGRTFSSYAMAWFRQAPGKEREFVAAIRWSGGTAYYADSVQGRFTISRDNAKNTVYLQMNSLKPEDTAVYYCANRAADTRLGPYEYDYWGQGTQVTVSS
3. DLLBII58A11 (VHH) VHH: EVQLVESGGGLVQAGGSLRLSCTTSERTVSRYSMGWFRQAPGKEREAVATISWSGDSTYYADSVKGRFTISRDNTKNTLYLQIDSLKPEDTAVYYCVAKPNLKYGSYWPPRGYDYWGQGTQVTVSS

Key:
[-2.92, -2.68, -2.80]

Exercise: Bench note: what log10 koff did DLLBII19F04 (VHH) VHH: EVQLVESGGGLVQAEGSLRLSCAASGSTFSTYAMAWYRQAPGKQRELVAGISFDGSTHYAESVKGRFTISRDDAKNTVSLQMNSLKPEDAAVYYCYSVHPSTGFGSWGQGTQVTVSS show?
Key: -2.96
